Parameter IC50: see the listing below.
System: 253994-281-T-J1-PDC KRAS-mutant spheroids with HUVEC/MSC, viability;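 note: spheroids exposed to agents for seven days before readout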
Assay Explanation: Anticancer human tumor 253994-281-T-J1-PDC patient-derived colorectal carcinoma cell line growth inhibition [KRAS2]
Condition Info: curve of first compound; second compound 1 µM
Measure: IC50 (nM)

{"Compound": "CCNC(=O)CC1N=C(c2ccc(Cl)cc2)c2cc(OC)ccc2-n2c(C)nnc21 (stereo not given) + COc1cc2nc(C)nc(NC(C)c3cc(N)cc(C(F)(F)F)c3)c2cc1OC1CCOC1", "Measure": "IC50", "Unit Tag": "nM", "Result Operator": "=", "Number": 7760}
{"Compound": "CCN1CCN(Cc2ccc(Nc3ncc(F)c(-c4cc(F)c5nc(C)n(C(C)C)c5c4)n3)nc2)CC1 + C=CC(=O)N1CCN(c2nc(OCC3CCCN3C)nc3c2CCN(c2cccc4cccc(C)c24)C3)CC1CC#N", "Measure": "IC50", "Unit Tag": "nM", "Result Operator": "=", "Number": 586}
{"Compound": "COc1cc(Nc2ncc3c(n2)-c2ccc(Cl)cc2C(c2c(F)cccc2OC)=NC3)ccc1C(=O)O + COc1cc2nc(C)nc(NC(C)c3cc(N)cc(C(F)(F)F)c3)c2cc1OC1CCOC1", "Measure": "IC50", "Unit Tag": "nM", "Result Operator": "<", "Number": 31.6}
{"Compound": "CC(=O)Nc1cccc(-n2c(=O)n(C3CC3)c(=O)c3c(Nc4ccc(I)cc4F)n(C)c(=O)c(C)c32)c1 + COc1cc2nc(C)nc(NC(C)c3cc(N)cc(C(F)(F)F)c3)c2cc1OC1CCOC1", "Measure": "IC50", "Unit Tag": "nM", "Result Operator": "=", "Number": 0.331}
{"Compound": "CC(C)NCC(C(=O)N1CCN(c2ncnc3c2C(C)CC3O)CC1)c1ccc(Cl)cc1 (stereo not given) + COc1cc2nc(C)nc(NC(C)c3cc(N)cc(C(F)(F)F)c3)c2cc1OC1CCOC1", "Measure": "IC50", "Unit Tag": "nM", "Result Operator": ">", "Number": 10000}

Measured values drawn from PubChem BioAssay AID1963874 for this set.
